The values you see were collected from PubChem BioAssay (NCI).

Test system: U251 CNS
assay.remarks: NCI-60 one-dose screen, 48 h (100 = growth as untreated, 0 = no growth, -100 = all killed)
assay.context: 10 µM
About 83,000 compounds went through this panel and 20% of them were active in at least one assay; those are over-represented in the sample as a whole.
Each record's class is read off its growth using these ranges: bottom range = under 20%, center range = from 20% up to 80%, top range = 80% and over

Examples with answers:
- molecule: "CCn1c(SCC(=O)Nc2ccc(-c3nc4ccccc4[nH]3)cc2)nc2ccccc2c1=O"
  assigned.label: "bottom range"
- molecule: "CC1[C@H]2[C@H](C[C@H]3[C@@H]4CC=C5c6sc(Nc7cccc(Cl)n7)nc6CC[C@]5(C)[C@H]4CC[C@@]32C)O[C@]12CC[C@@H](C)CO2 (stereo not given in full)"
  assigned.label: "top range"
- molecule: "Cn1cc(-c2nnc(N)nc2-c2c[nH]c3ccc(F)cc23)c2cc(Br)cnc21"
  assigned.label: "center range"

# bin label for `COc1ccc(OC)c(-n2cc(C#N)c(N)c2C(=O)c2ccc(Cl)cc2Cl)c1` center range

# bin label for `O=C(CC(=O)Nc1ccc(Oc2ncnc3scc(Nc4n[nH]c(=S)s4)c23)cc1)Nc1ccc(Br)cc1` top range

# bin label for CC1(C)CC[C@]2(C(=O)O)CC[C@]3(C)C(=CCC4[C@@]5(C)C[C@@H](O)[C@@H]6OC(c7cccc(F)c7)OC[C@@]6(C)C5CC[C@]43C)C2C1 (stereo not given in full) bottom range

# bin label for `COc1ccc(Cc2nn(CC(=O)N/N=C/c3ccc([N+](=O)[O-])cc3)c(=O)c3c(C)noc23)cc1` center range

# bin label for `Cn1cc(/C=C(/SS/C(=C/c2cn(C)c3cccc(C(=O)O)c23)C(=O)O)C(=O)O)c2c(C(=O)O)cccc21` top range

# bin label for `C#C[C@]1(O)CC[C@H]2[C@@H]3CC=C4c5sc(Nc6ccc(N(C)C)cc6)nc5CC[C@]4(C)[C@H]3CC[C@@]21C` bottom range

# bin label for `O=C(c1ccc(Cl)cc1)C(c1c[nH]c2ccccc12)c1c[nH]c2ccccc12` bottom range

# bin label for `Cn1cc(-c2nc(N)nnc2-c2c[nH]c3ccccc23)c2cc(Br)cnc21` bottom range

# bin label for `Nc1nnc(-c2c[nH]c3ncc(Br)cc23)c(-c2c[nH]c3ccc(Br)cc23)n1` center range

# bin label for COc1cc(C2CC(c3ccc(Oc4ccc(Cl)cc4)cc3)=NN2c2nc(-c3ccc(Cl)cc3)c(C#N)c(N3CCOCC3)n2)cc(OC)c1OC (stereo not given) top range

# bin label for `COc1cc2oc(-c3cccc(C(=O)Nc4ccc(Cl)cc4)c3)cc(=O)c2c(OCCNC(=O)[C@@H](N)CO)c1OC` bottom range

# bin label for `COc1ccc(C(=O)COc2ccc(NC(=O)Nc3ccc(Cl)c(C(F)(F)F)c3)cc2)cc1` center range

# bin label for `O=C(CSc1nc2ccccc2c(=O)n1-c1ccc(Cl)cc1)Nc1ccc(-c2nc3ccc([N+](=O)[O-])cc3[nH]2)cc1` center range

# bin label for `Cc1ccc(S(=O)(=O)N2CCN(S(=O)(=O)c3oc(-c4ccccc4)nc3C#N)CC2)cc1` top range

# bin label for `O=C(c1ccc(F)cc1)C(c1c[nH]c2ccccc12)c1c[nH]c2ccccc12` center range
